- tested system: ALR (Homo sapiens, UniProt P55789)
- Sequence (P55789 whole entry): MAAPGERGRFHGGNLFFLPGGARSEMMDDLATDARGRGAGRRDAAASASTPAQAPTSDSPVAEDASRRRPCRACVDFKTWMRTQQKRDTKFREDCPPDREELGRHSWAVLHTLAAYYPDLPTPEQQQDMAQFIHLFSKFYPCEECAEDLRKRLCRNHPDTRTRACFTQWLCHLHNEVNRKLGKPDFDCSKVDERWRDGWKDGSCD
observed property: pIC50
// pIC50 here means minus log10 of the molar concentration (mol/L)

For the record Oc1c(Cl)cc(Cl)cc1C=Nc1ccc(Nc2ccccc2)cc1 [MitoBloCK-6] , what value of pIC50 is listed for ALR (Homo sapiens, UniProt P55789)?
6.15

---

- tested system: Erv2 (Saccharomyces cerevisiae, UniProt Q12284)
- Sequence (Q12284 whole entry): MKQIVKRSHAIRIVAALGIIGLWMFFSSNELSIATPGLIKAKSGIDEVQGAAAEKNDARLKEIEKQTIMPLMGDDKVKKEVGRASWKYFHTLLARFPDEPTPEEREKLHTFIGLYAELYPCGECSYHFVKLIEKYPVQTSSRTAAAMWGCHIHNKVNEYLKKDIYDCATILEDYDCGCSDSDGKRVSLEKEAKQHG
observed property: IC50 (nM)
Field: numeric (nM). Do not append units.

I have this molecule here, `Oc1c(Cl)cc(Cl)cc1C=Nc1ccc(Nc2ccccc2)cc1` , and I need its recorded IC50.
1400

---

- tested system: Erv1 (Saccharomyces cerevisiae, UniProt P27882)
- Sequence (P27882 whole entry): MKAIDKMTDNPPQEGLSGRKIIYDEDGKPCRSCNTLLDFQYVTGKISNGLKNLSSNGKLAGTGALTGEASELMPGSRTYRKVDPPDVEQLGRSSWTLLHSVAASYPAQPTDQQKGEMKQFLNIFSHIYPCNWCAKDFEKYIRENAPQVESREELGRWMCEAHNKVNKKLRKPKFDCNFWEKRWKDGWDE
- assay comment: Amplex Red-HRP sulfhydryl oxidase assay with recombinant Erv1
observed property: pIC50
// pIC50 here means minus log10 of the molar concentration (mol/L)

I have this molecule here, Oc1c(Cl)cc(Cl)cc1C=Nc1ccc(Nc2ccccc2)cc1 [MitoBloCK-6] , and I need its recorded pIC50.
6.05

Origin of values: paper PMC3726224
